- assay-protocol: Evaluation of conversion rate to active form in BALB/c mouse plasma (Experimental Example 3)
- Assay type: in vitro ADME
- study-conditions: BALB/c, mouse, 60 min, 0.2 μmol/L
test-readout: Production rate (%) of Alvocidib

The cases that follow already have their Production rate (%) of Alvocidib on record.
CN1CC[C@H](c2c(O)cc(O)c3c(=O)cc(-c4ccccc4Cl)oc23)[C@H](OC(=O)CN)C1 [Comparative Example 8, reference compound]    94
CCC(=O)O[C@@H]1CN(C)CC[C@@H]1c1c(O)cc(O)c2c(=O)cc(-c3ccccc3Cl)oc12 [Comparative Example 6]    48
CCOC(=O)O[C@@H]1CN(C)CC[C@@H]1c1c(O)cc(O)c2c(=O)cc(-c3ccccc3Cl)oc12 [Comparative Example 3, reference compound]    7

P: CN1CC[C@H](c2c(O)cc(O)c3c(=O)cc(-c4ccccc4Cl)oc23)[C@H](OC(=O)[C@@H](N)CO)C1 [Comparative Example 9, reference compound]
Q: CN1CC[C@H](c2c(O)cc(O)c3c(=O)cc(-c4ccccc4Cl)oc23)[C@H](OC(=O)c2ccccc2F)C1 [Comparative Example 12]
R: CC(C)[C@H](N)C(=O)O[C@@H]1CN(C)CC[C@@H]1c1c(O)cc(O)c2c(=O)cc(-c3ccccc3Cl)oc12 [Comparative Example 10, reference compound]
S: CCNC(=O)O[C@@H]1CN(C)CC[C@@H]1c1c(O)cc(O)c2c(=O)cc(-c3ccccc3Cl)oc12 [Comparative Example 4, reference compound]
T: C[C@H](N)C(=O)O[C@@H]1CN(C)CC[C@@H]1c1c(O)cc(O)c2c(=O)cc(-c3ccccc3Cl)oc12 [Comparative Example 7, reference compound]
Order the records by Production rate (%) of Alvocidib, with each subsequent value no larger than the one before. Reply with the labels, ordered as the question asks. T, P, Q, R, S

Each recorded value in this set is attributed to patent US12617779B2.
